Where do these numbers come from? They come from patent US10278971B2.

test: Open-label dose-ranging study: pharmacokinetics, safety and tolerability of oral doses; assay type: in vivo, human; details: human, in vivo, po, 2000 mg, T1/2
experimental.endpoint: half-life (h)
Use h as the unit, but write only the number.

The compound listed as Nc1ccn([C@@H]2C(F)=C(CO)[C@@H](O)[C@H]2O)c(=O)n1 [RX-3117] has a reported half-life of 13.3

###

test: Open-label dose-ranging study: pharmacokinetics, safety and tolerability of oral doses; format: in vivo, human; settings: human, in vivo, po, 100 mg, T1/2
experimental.endpoint: half-life (h)
Provide the reading as a plain figure in h.

Per the records, this compound ( Nc1ccn([C@@H]2C(F)=C(CO)[C@@H](O)[C@H]2O)c(=O)n1 [RX-3117] ) has half-life equal to 20.2
